Tested on: 242566-281-R-J2-PDC complex spheroid viability;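 also: spheroids exposed to compounds for 7 days before readout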
Test: Anticancer human tumor 242566-281-R-J2-PDC patient-derived pancreatic carcinoma cell line growth inhibition [CLK]; active = viability on the fitted dose curve at most 10% of control; inactive = the rest
Details: second compound 0.0316 µM; first compound 0.316 µM
Choose the fitting class; nothing outside active, inactive is accepted.

Molecule | Class
C#Cc1c(F)ccc2cc(O)cc(-c3ncc4c(N5CC6CCC(C5)N6)nc(OCC56CCCN5CC(F)C6)nc4c3F)c12 (stereo not given) + CNC(=O)c1ccc(Nc2nc(OC3CCCC3)c3c(-c4ccc5nc(C)oc5c4)c[nH]c3n2)c(OC)c1 | inactive
CC(Nc1ccc2c(c1)OCCn1cc(N3C(=O)OCC3C(F)F)nc1-2)C(N)=O (stereo not given) + CNC(=O)c1ccc(Nc2nc(OC3CCCC3)c3c(-c4ccc5nc(C)oc5c4)c[nH]c3n2)c(OC)c1 | inactive
CC1COCCN1c1cc(C2(S(C)(=N)=O)CC2)nc(-c2ccnc3[nH]ccc23)n1 (stereo not given) + CN1CCN(c2cc(C(=O)Nc3cc4cc(-c5cnn(C)c5)ccc4cn3)ccn2)CC1 | inactive
CCCS(=O)(=O)Nc1ccc(F)c(C(=O)c2c[nH]c3ncc(-c4ccc(Cl)cc4)cc23)c1F + CN1CCN(c2cc(C(=O)Nc3cc4cc(-c5cnn(C)c5)ccc4cn3)ccn2)CC1 | inactive

Now look at this entry.
In: For this molecule, state the assay outcome: COc1cccc2c1C(=O)c1c(O)c3c(c(O)c1C2=O)CC(O)(C(=O)CO)CC3OC1CC(N)C(O)C(C)O1 (stereo not given) + CN1CCN(c2cc(C(=O)Nc3cc4cc(-c5cnn(C)c5)ccc4cn3)ccn2)CC1
Out: active
